Reported values of Max % inhibition for individual entries
# study_target: human PCSK9 (Homo sapiens, UniProt Q8NBP7)
# Sequence (Q8NBP7 153-692): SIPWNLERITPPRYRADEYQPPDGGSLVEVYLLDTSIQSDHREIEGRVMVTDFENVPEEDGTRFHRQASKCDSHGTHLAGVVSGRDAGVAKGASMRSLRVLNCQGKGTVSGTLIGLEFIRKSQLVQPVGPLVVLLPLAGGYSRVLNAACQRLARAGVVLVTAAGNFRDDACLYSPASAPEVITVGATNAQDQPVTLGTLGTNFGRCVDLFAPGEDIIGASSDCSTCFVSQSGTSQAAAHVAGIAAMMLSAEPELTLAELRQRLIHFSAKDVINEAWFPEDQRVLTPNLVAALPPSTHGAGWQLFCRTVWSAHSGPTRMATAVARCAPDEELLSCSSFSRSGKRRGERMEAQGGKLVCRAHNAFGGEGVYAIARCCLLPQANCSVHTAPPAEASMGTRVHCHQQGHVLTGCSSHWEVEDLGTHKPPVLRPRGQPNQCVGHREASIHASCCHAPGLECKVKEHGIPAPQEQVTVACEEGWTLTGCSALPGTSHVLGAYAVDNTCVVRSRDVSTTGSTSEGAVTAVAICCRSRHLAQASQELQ
# Sequence (Q8NBP7 31-152 partner limits assumed): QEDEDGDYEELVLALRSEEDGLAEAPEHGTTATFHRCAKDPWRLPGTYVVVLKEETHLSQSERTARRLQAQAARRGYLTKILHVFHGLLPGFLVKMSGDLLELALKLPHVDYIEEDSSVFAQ
# procedure_details: PCSK9 ligand binding TR-FRET assay (interference with binding of human PCSK9 to human LDLR)
# cond: PCSK9 FRET assay, efficacy (Amax); 100% = 1 uM unlabeled human PCSK9, 0% = DMSO
reported_property: Max % inhibition (%)

>>> endpoint_result("COC[C@@H]1NC(=O)[C@H](CCN2CCOCC2)N(Cc2ccc(Cl)cc2Oc2ccc(-c3cnc(CN(C)C)n3C)cc2)C(=O)C[C@@H](Cc2ccccc2)C(=O)N(C)[C@H]2CCCC[C@@H]2NC(=O)C[C@H](Cc2ccc(Cl)cc2)N(C)C1=O")
94.32
>>> endpoint_result("CC[C@H]1C(=O)N[C@@H](COC)C(=O)N(C)[C@@H](Cc2ccc(Cl)cc2F)CC(=O)NC[C@H](C)N(C)C(=O)[C@H](Cc2ccccc2)CC(=O)N1Cc1ccc(Cl)cc1Oc1ccc(-c2cnc(CN(C)C)n2C)cc1")
106.74
>>> endpoint_result("COC[C@@H]1NC(=O)[C@H](C)N(Cc2ccc(Cl)cc2Oc2ccc(-c3cnc(CN(C)C)n3C)cc2)C(=O)C[C@@H](CC2CCCCC2)C(=O)N(C)[C@@H](C)CNC(=O)C[C@H](Cc2ccc(Cl)cc2)N(C)C1=O")
81.31
>>> endpoint_result("COC[C@@H]1NC(=O)[C@H](C)N(Cc2ccc(Cl)cc2Oc2ccc(-c3cnc(CN4CCCC4)n3C)cc2)C(=O)C[C@@H](Cc2ccccc2)C(=O)N(C)[C@@H](CCCCNC(C)=O)CNC(=O)C[C@H](Cc2ccc(Cl)cc2)N(C)C1=O.O=C(O)C(F)(F)F")
95.74
>>> endpoint_result("COC[C@@H]1NC(=O)[C@H](C)N(Cc2ccc(Cl)cc2Oc2ccc(-c3cnc(CN(C)C)n3C)cc2)C(=O)C[C@@H](Cc2ccccc2)C(=O)N(C)C2(CC2)CNC(=O)C[C@H](Cc2ccc(Cl)cc2)N(C)C1=O")
100.34
>>> endpoint_result("COC[C@@H]1NC(=O)[C@H](C)N(Cc2ccc(Cl)cc2Oc2ccc(-c3cnc(CN4CCCC4)n3C)cc2)C(=O)C[C@@H](Cc2ccccc2)C(=O)N(C)[C@H]2CCCC[C@@H]2NC(=O)C[C@H](Cc2ccc(Cl)cc2)N(C)C1=O")
90.79
>>> endpoint_result("COC[C@@H]1NC(=O)[C@H](C)N(Cc2ccc(Cl)cc2Oc2ccc(-c3cnc(CN4CCCC4)n3C)cc2)C(=O)C[C@@H](Cc2cccc(OC(F)(F)F)c2)C(=O)N(C)[C@@H](C)CNC(=O)C[C@H](Cc2ccc(Cl)cc2)N(C)C1=O")
99.72
>>> endpoint_result("COC[C@@H]1NC(=O)[C@H](C)N(Cc2ccc(Cl)cc2Oc2ccc(-c3cnc(CN(C)C)n3C)cc2)C(=O)C[C@@H](Cc2ccccc2)C(=O)N(C)[C@@H](C)CNC(=O)C[C@H](Cc2ccc(Cl)cc2)N(C)C1=O")
101.12
>>> endpoint_result("COC[C@@H]1NC(=O)[C@H](C)N(Cc2ccc(C(F)F)cc2Oc2ccc(-c3cnc(CN(C)C)n3C)cc2)C(=O)C[C@@H](Cc2ccccc2)C(=O)N(C)[C@@H](C)CNC(=O)C[C@H](Cc2ccc(Cl)cc2)N(C)C1=O")
102.18
>>> endpoint_result("CCc1ccc(CN2C(=O)C[C@@H](Cc3ccccc3)C(=O)N(C)[C@@H](C)CNC(=O)C[C@H](Cc3ccc(Cl)cc3)N(C)C(=O)[C@H](COC)NC(=O)[C@@H]2CCF)c(Oc2ccc(-c3cnc(CN4CCCC4)n3C)cc2)c1")
104.11

Source: patent US20230089867A1
